- RUN DESCRIPTION: recombinant UMI read abundance after kanamycin selection (control-corrected) (log10(CPM+1)); higher = more efficient recombination; extreme values may be limits of the assay; sequences stand for … in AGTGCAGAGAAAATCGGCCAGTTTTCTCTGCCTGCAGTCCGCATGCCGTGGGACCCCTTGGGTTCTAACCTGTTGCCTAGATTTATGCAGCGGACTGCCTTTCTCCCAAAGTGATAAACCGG…AGGTTGGTTTCACT; site = the 11-nt donor
PROPERTY NAME: recombinant UMI read abundance (log10)
Output spec: single numeric token, no unit.

Challenge: Output recombinant UMI read abundance (log10) of TGGCCGGCATGGACCGGTTTTCCCGGTAATCCGTATTTGGC (site TGGTCGGCTGC)
Response given: 0.00844

Challenge: Complete the entry with recombinant UMI read abundance (log10) for TGCTAGACATGGACCGGTTTTCCCGGTAATCCGTATTTGGT (site TGCTAGCCTAC)
Response given: 0.00952

Challenge: Name the recorded recombinant UMI read abundance (log10) of the item GCTCGCCCATGGACCGGTTTTCCCGGTAATCCGTATTTGAT (site GCTGGCCCTAT) in your answer.
Response given: 0.019

Challenge: Tell me measured recombinant UMI read abundance (log10) for CGTTGGACATGGACCGGTTTTCCCGGTAATCCGTATTTGAG (site CGTTAGACTCT) please.
Response given: 0.878

Challenge: Retrieve recombinant UMI read abundance (log10) measured for GTTTCGGCATGGACCGGTTTTCCCGGTAATCCGTATTTGGG (site CGGGGCACTAA) and print it.
Response given: 0.0198

Challenge: Supply recombinant UMI read abundance (log10) value. Item: TAAAGTCCATGGACCGGTTTTCCCGGTAATCCGTATTTGTT (site TAAAGTCCTGA)
Response given: 0

Challenge: Return value of recombinant UMI read abundance (log10) for input CTATCGACATGGACCGGTTTTCCCGGTAATCCGTATTTGTT (site CCATCGACTAA) , no commentary.
Response given: 0.0135

Challenge: Output measured recombinant UMI read abundance (log10) for this item: TGAATACCATGGACCGGTTTTCCCGGTAATCCGTATTTGTC (site TGAATACCTGA)
Response given: 0

Challenge: Tell me recombinant UMI read abundance (log10) reported for CCTATTACATGGACCGGTTTTCCCGGTAATCCGTATTTGGC (site CCTAGTACTGC)
Response given: 0

Challenge: Output recombinant UMI read abundance (log10) of CCCTAGACATGGACCGGTTTTCCCGGTAATCCGTATTTGCC (site CCCTAGGCTGG)
Response given: 1.18

Challenge: Identify measured recombinant UMI read abundance (log10) associated with GGGGCACCATGGACCGGTTTTCCCGGTAATCCGTATTTGCA (site GGGGCCCCTTG)
Response given: 0.0249

Challenge: Return value of recombinant UMI read abundance (log10) for input GCTCGCCCATGGACCGGTTTTCCCGGTAATCCGTATTTGAT (site GCTAGCCCTAT) , no commentary.
Response given: 0.0115

Challenge: Give me measured recombinant UMI read abundance (log10), please, for this sequence: TCCGCCGCATGGACCGGTTTTCCCGGTAATCCGTATTTGCG (site TCCCCCGCTCG)
Response given: 0.00514

Challenge: Look up and report measured recombinant UMI read abundance (log10) for this entry: ATGTAGGCATGGACCGGTTTTCCCGGTAATCCGTATTTGGC (site ATGTCGGCTGC)
Response given: 0.474

Challenge: Annotate the sequence AAGCACGCATGGACCGGTTTTCCCGGTAATCCGTATTTGGG (site AAGCACGCTCT) with its measured recombinant UMI read abundance (log10).
Response given: 0.265

Challenge: Output measured recombinant UMI read abundance (log10) for this item: CGAAGGGCATGGACCGGTTTTCCCGGTAATCCGTATTTGGT (site CGAAGGGCTAC)
Response given: 1.32

Challenge: Indicate its recorded recombinant UMI read abundance (log10); the sequence in question is TCCTAGCCATGGACCGGTTTTCCCGGTAATCCGTATTTGCC (site GCCTAGCCTGG)
Response given: 0.221

Challenge: Note recombinant UMI read abundance (log10) for the sequence shown: CTGGCAACATGGACCGGTTTTCCCGGTAATCCGTATTTGCA (site CTGGCAACTTG)
Response given: 1.01

---

- RUN DESCRIPTION: recombinant barcode read abundance after kanamycin selection (control-corrected) (log10(CPM+1)); higher = more efficient recombination; sequences stand for … in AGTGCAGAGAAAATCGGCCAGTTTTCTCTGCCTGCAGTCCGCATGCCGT…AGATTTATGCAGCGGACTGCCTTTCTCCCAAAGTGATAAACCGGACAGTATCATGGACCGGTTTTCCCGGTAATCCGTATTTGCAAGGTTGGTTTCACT; site = the 11-nt target
Cut-off 0.3 on recombinant barcode read abundance (log10), inclusive. At or above means true (1); below means false (0).

Challenge: recombinant barcode read abundance (log10) >= 0.3 for CCTGATTCTTGGGTTCTAACCTGTTGCCT (site CCTGAATCTAG) ?
Response given: false (0)

Challenge: Please check the record AGCGAATCTTGGGTTCTAACCTGTTGCCT (site AGAGAATCTAG) and state if its recombinant barcode read abundance (log10) is at or above 0.3.
Response given: false (0)

Challenge: I'd appreciate it if you could say whether CATAGGGCTTGGGTTCTAACCTGTTGCCG (site CATAGAGCTAG) has recombinant barcode read abundance (log10) at least equal to 0.3.
Response given: false (0)

Challenge: // inclusive: recombinant barcode read abundance (log10) at least 0.3? input: GGCACTCCTTGGGTTCTAACCTGTTGCCT (site GGCACTCCTAG)
Response given: true (1)

Challenge: State whether the measured recombinant barcode read abundance (log10) reaches 0.3, counting equality as reaching it, for CAGAAGCCTTGGGTTCTAACCTGTTGCCT (site AAGAAGCCTAG)
Response given: true (1)

Challenge: Kindly determine if recombinant barcode read abundance (log10) recorded for GCACGCCCTTGGGTTCTAACCTGTTGCTT (site GCACGCCCTAA) is above or exactly 0.3.
Response given: true (1)

Challenge: Confirm if recombinant barcode read abundance (log10) reported for the sequence CCTCGCGCTTGGGTTCTAACCTGTTGCCT (site CCTAACGCTAG) is 0.3 or above.
Response given: true (1)

Challenge: Hi, just wondering whether ACGCGAGCTTGGGTTCTAACCTGTTGCCG (site ACGCGAGCTCG) shows recombinant barcode read abundance (log10) of 0.3 or higher.
Response given: false (0)

Challenge: Hi, just wondering whether CACGACCCTTGGGTTCTAACCTGTTGCCT (site CACGACCCTAG) shows recombinant barcode read abundance (log10) of 0.3 or higher.
Response given: true (1)

Challenge: Evaluate ATTACCTCTTGGGTTCTAACCTGTTGCCT (site AGTACCTCTAG) : recombinant barcode read abundance (log10) at minimum 0.3?
Response given: false (0)

---

- RUN DESCRIPTION: recombinant barcode read abundance after kanamycin selection (control-corrected) (log10(CPM+1)); higher = more efficient recombination; sequences stand for … in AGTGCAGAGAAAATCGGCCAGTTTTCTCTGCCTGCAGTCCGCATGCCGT…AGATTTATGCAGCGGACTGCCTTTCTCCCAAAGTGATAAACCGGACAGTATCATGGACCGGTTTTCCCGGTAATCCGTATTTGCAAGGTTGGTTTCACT; site = the 11-nt target
Record form. Attribute: recombinant barcode read abundance (log10). Fill in for each entry.
// response body must contain only the number

Challenge: Find the measured recombinant barcode read abundance (log10) of CGCCTCCCTTGGGTTCTAACCTGTTGCCT (site CGCCTCACTAG) and report it.
Response given: 0.179

Challenge: Note recombinant barcode read abundance (log10) for the sequence shown: TCACCTTCTTGGGTTCTAACCTGTTGCCT (site TCACTTCCTAG)
Response given: 0.0695

Challenge: Identify recombinant barcode read abundance (log10) associated with the sequence ACATGCACTTGGGTTCTAACCTGTTGCAT (site ACATGGACTAT)
Response given: 0.0168

Challenge: Answer with reported recombinant barcode read abundance (log10) of GACACGCCTTGGGTTCTAACCTGTTGCAT (site GACACGCCTAC)
Response given: 0.326

Challenge: Supply recombinant barcode read abundance (log10) value. Item: GAGACTCCTTGGGTTCTAACCTGTTGCAG (site GAGACTCCTCT)
Response given: 0.956
